Assay: qHTS assay for small molecule agonists of the antioxidant response element (ARE) signaling pathway - cell viability counter screen (AID 743203); note: nearly all actives have a fitted effect of over 55% in size
Conditions: ARE-bla HepG2 viability, CellTiter-Glo luminescence, 16 h; series mostly up to 73.3 µM
From the text: National Center for Advancing Translational Sciences [NCATS] NIH Chemical Genomics Center [NCGC] U.S. Environmental Protection Agency [EPA] National Institutes of Environmental Health Sciences [NIEHS] National Toxicology Program [NTP] U.S. Food and Drug Administration [FDA] Oxidative stress has been implicated in the pathogenesis of a variety of diseases ranging from cancer to neurodegeneration. […] The activation of the report gene under culture conditions can be detected by fluorescence intensity. […]
Records with an inconclusive call do not appear. Activity calls are given as the source filed them. Calls come from the whole dose curve.
Output constraint: value belongs to active, inactive

NC1=NC(=O)C(c2ccccc2)O1 (stereo not drawn): inactive
CCOC(=O)CP(=O)(OCC)OCC: inactive
CCCSC(=O)N(CCC)CCC: inactive
CCCCOC(=O)c1ccccc1N: inactive
C[C@]12CC[C@H]3[C@@H](CC=C4C[C@@H](O)CC[C@@]43C)[C@@H]1CC[C@@H]2O: inactive

# input Query: recorded result category for `CCCCOC(=O)[C@@H](C)Oc1ccc(Oc2ccc(C#N)cc2F)cc1` in this test
# output inactive

# input Query: recorded result category for CC1COC2(c3ccccc3Cl)c3cc(Cl)ccc3NC(=O)CN12 (stereo not drawn) in this test
# output inactive

# input Query: recorded result category for `O=S(=O)(O)C(F)(F)C(F)(F)C(F)(F)C(F)(F)C(F)(F)C(F)(F)F` in this test
# output inactive

# input Query: recorded result category for CC(C)(C)C(=O)C(Oc1ccc(Cl)cc1)n1cncn1 (stereo not drawn) in this test
# output inactive

# input Query: recorded result category for CCC1(c2ccccc2)C(=O)N=C(O)NC1=O (stereo not drawn) in this test
# output inactive

###

Molecular target: Acetylcholinesterase (Homo sapiens) (UniProt P22303)
Sequence (P22303 whole entry, looked up): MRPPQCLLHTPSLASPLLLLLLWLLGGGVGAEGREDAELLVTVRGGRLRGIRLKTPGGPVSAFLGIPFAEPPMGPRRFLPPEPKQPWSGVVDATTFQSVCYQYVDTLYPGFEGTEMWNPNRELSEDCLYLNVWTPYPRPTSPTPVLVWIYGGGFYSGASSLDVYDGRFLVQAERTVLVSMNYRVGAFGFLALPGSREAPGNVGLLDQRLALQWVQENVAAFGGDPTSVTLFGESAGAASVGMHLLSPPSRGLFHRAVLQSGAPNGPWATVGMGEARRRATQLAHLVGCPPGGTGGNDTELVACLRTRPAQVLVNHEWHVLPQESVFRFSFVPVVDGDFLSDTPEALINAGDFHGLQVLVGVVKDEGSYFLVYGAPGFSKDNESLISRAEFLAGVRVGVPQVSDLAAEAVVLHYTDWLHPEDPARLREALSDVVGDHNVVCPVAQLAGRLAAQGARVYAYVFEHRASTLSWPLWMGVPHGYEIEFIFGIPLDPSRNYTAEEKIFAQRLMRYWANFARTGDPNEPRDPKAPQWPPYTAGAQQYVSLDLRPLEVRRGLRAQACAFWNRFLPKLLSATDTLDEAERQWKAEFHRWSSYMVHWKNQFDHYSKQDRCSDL
Test: Acetylcholinesterase (AChE) small molecule antagonists: enzyme-based qHTS assay (AID 1347397); note: nearly all actives have a fitted effect of over 55% in size
Details: AChE enzyme activity inhibition; series mostly up to 115 µM
Calls of active or inactive are those of the source. The call rests on the fitted dose curve.
Output constraint: value belongs to T = active, F = inactive

CCOP(=S)(OCC)Oc1ncn(-c2ccccc2)n1: T
Cc1nnc2n1-c1sc(CCC(=O)N3CCOCC3)cc1C(c1ccccc1Cl)=NC2: F

# input Query: recorded result category for `C=C(C)CN(CC)c1c([N+](=O)[O-])cc(C(F)(F)F)cc1[N+](=O)[O-]` in this test
# output F

# input Query: recorded result category for `CCOc1nc(C(Cl)(Cl)Cl)ns1` in this test
# output F

# input Query: recorded result category for `C=CCC1=C(C)[C@@H](OC(=O)[C@@H]2[C@@H](C=C(C)C)C2(C)C)CC1=O` in this test
# output F

###

Assay: qHTS assay for identifying genotoxic compounds that show differential cytotoxicity against isogenic chicken DT40 cell lines with known DNA damage response pathways - Rad54/Ku70 mutant cell line (AID 743015); note: nearly all actives have a fitted effect of over 60% in size
Conditions: DT40 Rad54/Ku70 mutant viability, CellTiter-Glo, 40 h; series mostly up to 66.8 µM
Results filed as inconclusive are left out. The source made the active and inactive calls. Calls come from the whole dose curve; as a rule, active = well fitted cell-killing curve with a large enough effect in the repeat runs; inconclusive = weak or mixed curves; inactive = no such curve, though single readings can be large or run the other way.
Output constraint: value belongs to active, inactive

CCN(CC)C(C)C(=O)c1ccccc1 (configuration not stated): inactive
Cc1nnc2n1-c1sc(CCC(=O)N3CCOCC3)cc1C(c1ccccc1Cl)=NC2: inactive
[Cl][Sn]([Cl])([Cl])[Cl]: inactive
O=C(Cc1ccccc1)OCc1ccccc1: inactive

# input Query: recorded result category for `O=[N+]([O-])c1cccc2c([N+](=O)[O-])cccc12` in this test
# output inactive

# input Query: recorded result category for `CCCCc1c(C)nc(NCC)[nH]c1=O` in this test
# output inactive

###

Assay: A CellTox Green Cytotoxicity Assay to monitor cytotoxicity in HEK293 cells - 8 hour (AID 1224884); note: nearly all actives have a fitted effect of over 35% in size
Details: CellTox Green fluorescence; series mostly up to 76.8 µM
Records with an inconclusive call do not appear. Activity calls are given as the source filed them. Calls come from the whole dose curve; as a rule, active = well fitted activation curve with a large enough effect in the repeat runs; inconclusive = weak or mixed curves; inactive = flat fitted curve, though single readings scatter.
Quantity Name: outcome

Worked examples, 5 compounds total:
O=C(Nc1ccccc1)c1ccccc1I: inactive
CCCCOC(=O)c1ccccc1C(=O)O: inactive
CNC(=O)Oc1cccc(C(C)C)c1: inactive
CCN(CC)C(=O)[C@@H]1C=C2c3cccc4[nH]cc(c34)C[C@H]2N(C)C1: inactive
COc1cc(OC)nc(Oc2cccc(Oc3nc(OC)cc(OC)n3)c2C(=O)O)n1: inactive

Hi! Can you tell me outcome for each of these compounds?
1. O=NN1CCCCC1
2. Nc1c(Br)cc([N+](=O)[O-])cc1[N+](=O)[O-]
3. CCS(=O)(=O)C(C)(C)S(=O)(=O)CC
4. O=C1OC(CCN2CCCCC2)OC1(c1ccccc1)c1ccccc1 (centres undefined)

# output
["inactive", "inactive", "inactive", "inactive"]

###

Target: Acetylcholinesterase (Homo sapiens)
Experiment: Acetylcholinesterase (AChE) small molecule antagonists: enzyme-based qHTS assay with human liver microsomes (AID 1347399); note: nearly all actives have a fitted effect of over 60% in size
Details: qHTS inhibition; series mostly up to 115 µM
Calls of active or inactive are those of the source. Calls come from the whole dose curve.
Output constraint: value belongs to active, inactive

CC(C=O)Cc1ccc2c(c1)OCO2 (stereo not given): inactive
CCOC(=O)/C=C(C)/C=C/C[C@@H](C)CCCC(C)C: inactive
CC(Oc1ccc(Oc2ncc(C(F)(F)F)cc2Cl)cc1)C(=O)O (stereo not given): inactive
ClC(Br)Br: inactive

Kindly consider the entry below.
# input Query: recorded result category for CCOP(=S)(Oc1cnc(C(C)(C)C)nc1)OC(C)C (stereo not given) in this test
# output active

###

Molecular target: Acetylcholinesterase (Homo sapiens) (UniProt P22303)
Test: Acetylcholinesterase (AChE) small molecule antagonists: colormetric cell-based qHTS assay (AID 1347395); note: nearly all actives have a fitted effect of over 30% in size
Details: SH-SY5Y cells AChE activity, colorimetric (Ellman); series mostly up to 115 µM
Inconclusive results are not listed. Calls of active or inactive are those of the source. Calls follow the shape of the full dose curve.
Output constraint: value belongs to 1 (yes) for active, 0 (no) for inactive

CC(C)(C)OC(=O)c1ncn2c1[C@@H]1CCCN1C(=O)c1c(Br)cccc1-2: 0 (no)
COP(=S)(OC)Oc1c(Cl)cc(C)cc1Cl: 0 (no)
C[N+](C)=CCl: 0 (no)
CCCCC(=O)Cl: 0 (no)
CCSC(=O)N(CC)C1CCCCC1: 0 (no)

# input Query: recorded result category for `COc1cc(C[C@@H](C)N)c(OC)cc1C` in this test
# output 0 (no)

# input Query: recorded result category for `O=C1CN=C(c2ccccc2)c2cc([N+](=O)[O-])ccc2N1` in this test
# output 0 (no)

# input Query: recorded result category for CCC(Cl)[N+](=O)[O-] (stereo not drawn) in this test
# output 0 (no)

###

Experiment: qHTS assay to identify small molecule agonists of the estrogen related receptor (ERR) signaling pathway from Tox21 library (AID 1224849); note: nearly all actives have a fitted effect of over 15% in size
Conditions: ERR reporter cell line, ONE-Glo luciferase, 18 h; at 92.4 µM (top of the series) unless noted
Activity calls are given as the source filed them. The call rests on the fitted dose curve.
Output constraint: value belongs to active, inactive

CC(COc1ccc(Oc2ccccc2)cc1)Oc1ccccn1 (configuration not stated): inactive

# input Query: recorded result category for `CC1(C(=O)Nc2ccc(O)c(Cl)c2Cl)CCCCC1` in this test
# output inactive

# input Query: recorded result category for `CCOC(=O)NC(=S)Nc1ccccc1NC(=S)NC(=O)OCC` in this test
# output active

# input Query: recorded result category for `CCOC(=O)CP(=O)(OCC)OCC` in this test
# output inactive

# input Query: recorded result category for `NC(=S)C(N)=S` in this test
# output inactive

# input Query: recorded result category for `CC1(C)COP(Oc2ccccc2)OC1` in this test
# output inactive

# input Query: recorded result category for CCC(Cl)[N+](=O)[O-] (configuration not stated) in this test
# output inactive

# input Query: recorded result category for `CCNc1nc(NC(C)C)nc(OC)n1` in this test
# output inactive

# input Query: recorded result category for `C[C@]12CC[C@H]3[C@@H](CCC4=CC(=O)CC[C@@]43C)[C@@H]1CC[C@@H]2C(=O)O` in this test
# output inactive

# input Query: recorded result category for CCC(C)n1c(=O)[nH]c(C)c(Br)c1=O (configuration not stated) in this test
# output inactive

# input Query: recorded result category for `COCC(=O)N(c1c(C)cccc1C)N1CCOC1=O` in this test
# output inactive

# input Query: recorded result category for `C1CCC(C2CCCCC2)CC1` in this test
# output inactive

# input Query: recorded result category for `COc1cccc(C(=O)NN(C(=O)c2cc(C)cc(C)c2)C(C)(C)C)c1C` in this test
# output inactive

# input Query: recorded result category for `Cc1nnc2n1-c1sc(CCC(=O)N3CCOCC3)cc1C(c1ccccc1Cl)=NC2` in this test
# output inactive
